tested on: 83 DP RNA; assay: In-line probing of 83 DP RNA (Downstream-peptide motif); assay type: binding, Synechococcus sp. CC9902; conditions: stated in the discussion for both aptamer subtypes, concentration not given at place
value-kind: binding by the Downstream-peptide glutamine aptamer

compound	value-observed
NC(=O)CCC[C@H](N)C(=O)O [L-homoglutamine]	reject
N[C@@H](CCC(=O)O)C(=O)O [glutamate]	reject
CC(=O)CC[C@H](N)C(=O)O [(S)-2-amino-5-oxo-hexanoic acid]	reject

====

molecular target: second representative of the glnA motif from a marine metagenomic sequence; experiment: In-line probing of a second glnA motif representative
pKd: −log10 of the molar value.
value-kind: pKd

compound-structure	value-observed
NC(=O)CC[C@H](N)C(=O)O	~3.82

====

biological target: SK209-52 RNA; test: In-line probing of SK209-52 RNA (SAM/SAH motif); details: SAM samples may contain breakdown product SAH, read-out: apparent dissociation constant (KD)
value-kind: Kd

compound-structure	value-observed
Nc1ncnc2c1ncn2[C@@H]1O[C@H](CSCC[C@H](N)C(=O)O)[C@@H](O)[C@H]1O	~4.3 µM

====

test system: second representative of the glnA motif from a marine metagenomic sequence; experiment: In-line probing of a second glnA motif representative; assay type: binding; conditions: at 1 mM (data not shown)

compound	binding by the RNA
NCCCCN [putrescine]	rejected
Cc1ncc(COP(=O)(O)O)c(C=O)c1O [pyridoxal phosphate]	rejected
O=C(O)CCCC(=O)O [glutaric acid]	rejected
O=C(O)CCC(=O)O [succinate]	rejected
O=CCCC(=O)O [succinic semialdehyde]	rejected
O=C(O)CCC(=O)C(=O)O [2-oxoglutarate]	rejected
NCCCC(=O)O [γ-aminobutyric acid]	rejected
N=C(N)NCCCCN [agmatine]	rejected
N[C@@H](CCC(=O)O)C(=O)O [glutamate]	rejected
NCCCC[C@H](N)C(=O)O [L-lysine]	rejected

====

biological target: 67 glnA RNA; experiment: In-line probing of 67 glnA RNA; format: binding, Synechococcus elongatus; conditions: in-line probing; one-to-one interaction; read-out: apparent dissociation constant (KD)

compound-structure	Kd
NC(=O)CC[C@H](N)C(=O)O	~575 µM

====

biological target: 67 glnA RNA; assay: In-line probing of 67 glnA RNA; format: binding, Synechococcus elongatus; settings: curve expected for a 1-to-1 RNA-ligand interaction (FIG. 30C); read-out: KD
pKd: −log10 of the molar value.

compound	pKd
NC(=O)CC[C@H](N)C(=O)O [L-glutamine]	3.24
